# test-name: in vivo
# condition-description: BALB/c nude, mouse, in vivo, iv, total radioactivity, T/St Tumor/Stomach ratio
assay-metric: tissue to tissue ratio at 24 h
Field format: numeric only.

In: Tell me the measured tissue to tissue ratio at 24 h of C[C@@H](O)[C@H](NC(=O)[C@@H]1CSSC[C@H](NC(=O)[C@@H](Cc2ccccc2)NC(=O)CC[C@H](NC(=O)[C@H](CCCCNC(=O)CC[C@H](NC(=O)CNC(=O)c2cccc(NC(=O)N[C@@H]3CN(C4CCCCC4)c4ccccc4N(CC(=O)C(C)(C)C)C3=O)c2)C(=O)O)NC(=O)CC[C@H](NC(=O)CN2CCN(CC(=O)O)CCN(CC(=O)O)CCN(CC(=O)O)CC2)C(=O)O)C(=O)O)C(=O)N[C@@H](Cc2ccc(O)cc2)C(=O)N[C@H](Cc2c[nH]c3ccccc23)C(=O)N[C@@H](CCCCN)C(=O)N[C@@H]([C@@H](C)O)C(=O)N1)C(=O)O , please.
Out: 3.4
